Values compiled from patent US20130029928A1.

experiment: Phase I study CXR1002-001: plasma pharmacokinetics (LC-MS/MS); format: in vivo, human; conditions: human, plasma, oral, 950 mg, Patient 029, 950 mg, person, plasma, 508 hr; read-out: Concentration

structure	concentration at 508 h, µM
O=C(O)C(F)(F)C(F)(F)C(F)(F)C(F)(F)C(F)(F)C(F)(F)C(F)(F)F	701

###

test: Phase I study CXR1002-001: plasma pharmacokinetics (LC-MS/MS); assay type: in vivo, human; settings: human, plasma, oral, 750 mg, Patient 026, 750 mg, person, plasma, 528 hr (Day 23); read-out: Concentration
measuredQuantity: concentration at 528 h (µM)

structure	unitTag	value
O=C(O)C(F)(F)C(F)(F)C(F)(F)C(F)(F)C(F)(F)C(F)(F)C(F)(F)F	µM	608

###

experiment: Phase I study CXR1002-001: plasma pharmacokinetics (LC-MS/MS); assay type: in vivo, human; conditions: human, plasma, oral, 750 mg, Patient 028, 750 mg, person, plasma, 338 hr; read-out: Concentration
measuredQuantity: concentration at 338 h (µM)

structure	value
O=C(O)C(F)(F)C(F)(F)C(F)(F)C(F)(F)C(F)(F)C(F)(F)C(F)(F)F	473

###

Assay: Phase I study CXR1002-001: plasma pharmacokinetics (LC-MS/MS)
Assay type: in vivo, human
Details: human, plasma, oral, 950 mg, Patient 029, 950 mg, person, plasma, 507 hr; read-out: Concentration
Source text: PK samples, PD (fasting) samples, blood glucose, and blood triglyceride samples, were taken over a 6-week period. Dose limiting toxicity (DLT) will be based on the toxicity assessments over the first 3-week period of the repeat dosing schedule. […]

structure	concentration at 507 h [µM]
O=C(O)C(F)(F)C(F)(F)C(F)(F)C(F)(F)C(F)(F)C(F)(F)C(F)(F)F	741

###

experiment: Phase I study CXR1002-001: plasma pharmacokinetics (LC-MS/MS); format: in vivo, human; conditions: human, plasma, oral, 200 mg, Patient 009 Dose 200 mg; 506 hr; read-out: Concentration

structure	concentration at 506 h (µM)
O=C(O)C(F)(F)C(F)(F)C(F)(F)C(F)(F)C(F)(F)C(F)(F)C(F)(F)F	285

###

experiment: Phase I study CXR1002-001: plasma pharmacokinetics (LC-MS/MS); format: in vivo, human; details: human, plasma, oral, 600 mg, Patient 024, 600 mg, person, plasma, 842 hr; read-out: Concentration
measuredQuantity: concentration at 842 h (µM)

structure	unitTag	value
O=C(O)C(F)(F)C(F)(F)C(F)(F)C(F)(F)C(F)(F)C(F)(F)C(F)(F)F	µM	898

###

test: Phase I study CXR1002-001: plasma pharmacokinetics (LC-MS/MS); assay type: in vivo, human; conditions: human, plasma, oral, 450 mg, Patient 015 Dose 450 mg; 24 hr (Day 2); read-out: Concentration
measuredQuantity: concentration at 24 h (µM)

structure	value
O=C(O)C(F)(F)C(F)(F)C(F)(F)C(F)(F)C(F)(F)C(F)(F)C(F)(F)F	126

###

Experiment: Phase I study CXR1002-001: plasma pharmacokinetics (LC-MS/MS)
Format: in vivo, human
Details: human, plasma, oral, 200 mg, Patient 009 Dose 200 mg; Week 32
Description: PK samples, PD (fasting) samples, blood glucose, and blood triglyceride samples, were taken over a 6-week period. Dose limiting toxicity (DLT) will be based on the toxicity assessments over the first 3-week period of the repeat dosing schedule. […]

structure	concentration at 32 week, µM
O=C(O)C(F)(F)C(F)(F)C(F)(F)C(F)(F)C(F)(F)C(F)(F)C(F)(F)F	540
